Tested on: Hs-445 (Non-Cancerous)
experimental protocol: combination Emax (second highest fraction inhibited in the dose matrix, 72 h); higher = more inhibition; extreme values may be limits of the assay
Entries and their combination Emax
The response must contain the number and no unit.

A selection of reference data follows.
>>> readout_number("COc1nnc2ccc(N3CCC(c4ccc(OCCN5CCN(C)C(=O)[C@H]5C)cc4)CC3)nn12 [AZD5153] + C=CCn1c(=O)c2cnc(Nc3ccc(N4CCN(C)CC4)cc3)nc2n1-c1cccc(C(C)(C)O)n1 [AZD1775] (first compound max 1 µM, partner max 1 µM)")
0.71
>>> readout_number("Cc1c2c(nn1C)CSCc1cc(n(C)n1)CSc1cc(c3ccccc3c1)OCCCc1c(C(=O)O)n(C)c3c-2c(Cl)ccc13 [AZD5991] + Cn1cnc2c(F)c(Nc3ccc(Br)cc3Cl)c(C(=O)NOCCO)cc21 [Selumetinib] (first compound max 1 µM, 7x7, partner max 3 µM)")
0.932
>>> readout_number("Cc1c2c(nn1C)CSCc1cc(n(C)n1)CSc1cc(c3ccccc3c1)OCCCc1c(C(=O)O)n(C)c3c-2c(Cl)ccc13 [AZD5991] + CCN(CCO)CCCOc1ccc2c(Nc3cc(CC(=O)Nc4cccc(F)c4)[nH]n3)ncnc2c1 [AZD2811] (first compound max 1 µM, 7x7, partner max 1 µM)")
0.968

Now look at this entry.
Consider the compound shown here: Cc1c2c(nn1C)CSCc1cc(n(C)n1)CSc1cc(c3ccccc3c1)OCCCc1c(C(=O)O)n(C)c3c-2c(Cl)ccc13 [AZD5991] + C[C@@H]1COCCN1C2=NC(=NC(=C2)C3(CC3)[S@](=N)(=O)C)C4=C5C=CNC5=NC=C4 [AZD6738] (first compound max 1 µM, 7x7, partner max 10 µM) What is its recorded combination Emax? 1

###

Tested on: MDST8 (Colorectal Carcinoma);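 also: after 72 h of two-drug dosing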
experimental protocol: Bliss excess, mean over the matrix (fraction); higher = more synergy
endpoint: Bliss excess

>>> result("COc1nnc2ccc(N3CCC(c4ccc(OCCN5CCN(C)C(=O)[C@H]5C)cc4)CC3)nn12 [AZD5153] + CN(CC[C@H](CSC1=CC=CC=C1)NC2=C(C=C(C=C2)S(=O)(=O)NC(=O)C3=CC=C(C=C3)N4CCC(CC4)[C@H](C5=CC=CC=C5C6=CC=C(C=C6)Cl)O)S(=O)(=O)C(F)(F)F)CCO [AZD4320] (first compound max 1 µM, 7x7, partner max 1 µM)")
0.0929
>>> result("CCN(CCO)CCCOc1ccc2c(Nc3cc(CC(=O)Nc4cccc(F)c4)[nH]n3)ncnc2c1 [AZD2811] + O=C(c1cc(Cc2n[nH]c(=O)c3ccccc23)ccc1F)N1CCN(C(=O)C2CC2)CC1 [Olaparib] (first compound max 1 µM, 7x7, partner max 10 µM)")
0.0271
>>> result("Cc1c2c(nn1C)CSCc1cc(n(C)n1)CSc1cc(c3ccccc3c1)OCCCc1c(C(=O)O)n(C)c3c-2c(Cl)ccc13 [AZD5991] + CC1(C)CCC(CN2CCN(c3ccc(C(=O)NS(=O)(=O)c4ccc(NCC5CCOCC5)c([N+](=O)[O-])c4)c(Oc4cnc5[nH]ccc5c4)c3)CC2)=C(c2ccc(Cl)cc2)C1 [Venetoclax] (first compound max 1 µM, 7x7, partner max 1 µM)")
-0.0359
>>> result("C[C@@H](c1ccc2nccn2c1)n1nnc2ncc(-c3cnn(C)c3)nc21 [Savolitinib] + CC1(C)CCC(CN2CCN(c3ccc(C(=O)NS(=O)(=O)c4ccc(NCC5CCOCC5)c([N+](=O)[O-])c4)c(Oc4cnc5[nH]ccc5c4)c3)CC2)=C(c2ccc(Cl)cc2)C1 [Venetoclax] (first compound max 1 µM, 7x7, partner max 1 µM)")
-0.0546

Which Bliss excess value belongs to CN(CCO)CC[C@H](CSc1ccccc1)Nc1ccc(S(=O)(=O)NC(=O)c2ccc(N3CCC([C@@H](O)c4ccccc4-c4ccc(Cl)cc4)CC3)cc2)cc1S(=O)(=O)C(F)(F)F [AZD4320] + C[C@@H](Nc1cc(F)cc(F)c1)c1cc(C(=O)N(C)C)cc2c(=O)cc(N3CCOCC3)oc12 [AZD8186] (first compound max 1 µM, 7x7, partner max 3 µM) ? 0.025
